# Test system: EW-1 (Ewing's Sarcoma);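 also: after 72 h of two-drug dosing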
# ASSAY PROTOCOL: Bliss excess, mean over the matrix (fraction); higher = more synergy
Item-by-item account of Bliss excess
Form: value (number only, do not type unit).

Inquiry: Request the reported Bliss excess associated with CN(CCO)CC[C@H](CSc1ccccc1)Nc1ccc(S(=O)(=O)NC(=O)c2ccc(N3CCC([C@@H](O)c4ccccc4-c4ccc(Cl)cc4)CC3)cc2)cc1S(=O)(=O)C(F)(F)F [AZD4320] + C1CN(CCC1(C(=O)N[C@@H](CCO)C2=CC=C(C=C2)Cl)N)C3=NC=NC4=C3C=CN4 [Capivasertib] (first compound max 1 µM, 7x7, partner max 3 µM)
Reply text: -0.0009

Inquiry: Request the reported Bliss excess associated with COc1nnc2ccc(N3CCC(c4ccc(OCCN5CCN(C)C(=O)[C@H]5C)cc4)CC3)nn12 [AZD5153] + CN(CC[C@H](CSC1=CC=CC=C1)NC2=C(C=C(C=C2)S(=O)(=O)NC(=O)C3=CC=C(C=C3)N4CCC(CC4)[C@H](C5=CC=CC=C5C6=CC=C(C=C6)Cl)O)S(=O)(=O)C(F)(F)F)CCO [AZD4320] (first compound max 1 µM, 7x7, partner max 1 µM)
Reply text: 0.0591

Inquiry: Request the reported Bliss excess associated with CCN(CCO)CCCOc1ccc2c(Nc3cc(CC(=O)Nc4cccc(F)c4)[nH]n3)ncnc2c1 [AZD2811] + C=CCn1c(=O)c2cnc(Nc3ccc(N4CCN(C)CC4)cc3)nc2n1-c1cccc(C(C)(C)O)n1 [AZD1775] (first compound max 1 µM, partner max 1 µM)
Reply text: -0.0026
